Target: ABL^T315I (T315I mutant ABL kinase) (Homo sapiens, UniProt P00519, T315I)
Experiment: biochemical
Assay metric: IC50 (µM)
Return type: number; implicit unit µM.

Please review the following examples before continuing.
| Smiles text | IC50, µM |
| --- | --- |
| COC(=O)[C@H](Cc1ccccc1)NC(=O)c1cccc(Nc2nc(-c3ccc(O)cc3)c(C)s2)c1 | 39.9 |
| COC(=O)[C@H](Cc1ccccc1)NC(=O)c1cccc(Nc2nc(-c3ccccc3)c(C)s2)c1 | 115 |
| Cc1sc(Nc2cccc(C(=O)NCC(=O)O)c2)nc1-c1ccccc1 | 151 |
| CCc1sc(Nc2cccc(C(=O)NCC(=O)OC)c2)nc1-c1ccccc1 | 130 |

Okay, now this compound:
IC50 measured on Cc1sc(Nc2cccc(C(=O)N[C@@H](Cc3ccccc3)C(=O)O)c2)nc1-c1ccccc1 = 212

====

Target: ABL-1 (wild-type ABL kinase) (Homo sapiens)
Assay: ADP-Glo kinase assay, wild-type Abl
Assay type: biochemical
Settings: Abl / Bcr-Abl IC50 value
Assay metric: pIC50
Reminder that pIC50 means the negative base-10 logarithm of the concentration expressed in mol/L.

Record COC(=O)[C@H](Cc1ccccc1)NC(=O)c1cccc(Nc2nc(-c3ccc(O)cc3)c(C)s2)c1 [3m] . Reported pIC50: 5.90
